Target: human 5-HT1A-serotonergic receptor (Homo sapiens, UniProt P08908)
Construct: expressed in transfected cells; host or cells: HeLa (human), stably transfected; membrane preparation
Sequence (P08908 1-422): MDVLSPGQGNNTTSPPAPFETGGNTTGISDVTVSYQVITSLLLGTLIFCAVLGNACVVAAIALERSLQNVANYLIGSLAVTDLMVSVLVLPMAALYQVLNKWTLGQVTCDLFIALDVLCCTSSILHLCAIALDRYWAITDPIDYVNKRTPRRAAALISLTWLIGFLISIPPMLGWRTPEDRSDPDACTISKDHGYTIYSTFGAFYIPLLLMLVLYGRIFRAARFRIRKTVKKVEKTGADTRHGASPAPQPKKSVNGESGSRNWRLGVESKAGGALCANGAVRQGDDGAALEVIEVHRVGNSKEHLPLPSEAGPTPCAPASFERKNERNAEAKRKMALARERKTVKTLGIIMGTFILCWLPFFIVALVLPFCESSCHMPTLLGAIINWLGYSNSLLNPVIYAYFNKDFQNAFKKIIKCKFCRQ
Assay: Radioligand binding to recombinant 5-HT1A receptors ([3H]8-OH-DPAT, HeLa cell membranes)
Settings: 1 nM [3H]8-OH-DPAT; Ki from IC50 by Cheng & Prusoff; read-out: Ki, binding affinity for 5-HT1A receptors
observation_type: pKi
# pKi is unitless: minus log10 of the molar concentration; print number only

# example entries with known answers
CCOC(C1CCCCC1)C(CCN1CCN(c2cccc3c2OCCO3)CC1)c1ccccc1 (stereo not shown); 9.16
CC(O)C(CCN1CCN(c2cccc3c2OCCO3)CC1)c1ccccc1 (stereo not shown); 8.27
C=CC(OC)C(CCN1CCN(c2cccc3c2OCCO3)CC1)c1ccccc1OC(F)(F)F (stereo not shown); 8.72
C=CC(O)C(CCN1CCN(c2cccc3c2OCCO3)CC1)c1ccccc1OC(F)(F)F (stereo not shown); 8.14
CCCC(OC)C(CCN1CCN(c2cccc3c2OCCO3)CC1)c1ccccc1 (stereo not shown); 8.77
COc1ccccc1N1CCN(CC[C@H](c2ccccc2F)[C@@H](OC(C)=O)C2CCCCC2)CC1 (racemic); 9.27
COc1cc(F)ccc1N1CCN(CCC(C(=O)C2CCCCC2)c2ccccc2C#N)CC1 (stereo not shown); 8.77
N#Cc1ccccc1C(CCN1CCN(c2cccc3c2OCCO3)CC1)C(O)C1CCCCC1 (racemic) [Example 14a]; 9.06
CCC(O)C(CCN1CCN(c2cccc3c2OCCO3)CC1)c1ccccc1OC(F)(F)F (stereo not shown); 8.44
C#CCOC(C1CCCCC1)C(CCN1CCN(c2cccc3c2OCCO3)CC1)c1ccccc1 (stereo not shown); 9.20

Retrieve pKi measured for COC(C1CCCCC1)C(CCN1CCN(c2ccccc2OCC(F)(F)F)CC1)c1ccccc1F (stereo not shown) and print it.
8.84

Answer with the recorded pKi for the compound listed here: COc1ccccc1N1CCN(CC[C@H](c2ccccc2F)[C@@H](OC(N)=O)C2CCCCC2)CC1 (racemic)
9.44

Please look at this compound and report its pKi: C=CC(O)C(CCN1CCN(c2cccc3c2OCCO3)CC1)c1ccccc1 (stereo not shown)
8.53

Tell us which pKi value is on record for COC(C)C(CCN1CCN(c2cccc3c2OCCO3)CC1)c1ccccc1 (stereo not shown)
8.44

Provide only the value of recorded pKi for CC(C)C(O)C(CCN1CCN(c2cccc3c2OCCO3)CC1)c1ccccc1 (stereo not shown)
8.97

Tell me its pKi given CC(C)CC(O)C(CCN1CCN(c2cccc3c2OCCO3)CC1)c1ccccc1 (stereo not shown) as the entry.
9.25

For the compound CCCOC(CCC)C(CCN1CCN(c2cccc3c2OCCO3)CC1)c1ccccc1 (stereo not shown) , give its measured pKi value.
8.52

Read the entry CN(C)C(=O)c1ccccc1C(CCN1CCN(c2cccc3c2OCCO3)CC1)C(=O)C1CCCCC1 (stereo not shown) and write its reported pKi.
8.53

Could you please provide reported pKi for COc1cc(F)ccc1N1CCN(CCC(c2ccccc2C(=O)N(C)C)C(O)C2CCCCC2)CC1 (stereo not shown) ? Thanks!
8.31

Provide only the value of recorded pKi for COC(=O)O[C@@H](C1CCCCC1)[C@H](CCN1CCN(c2ccccc2OC)CC1)c1ccccc1F (racemic)
9.14

Report measured pKi; entry is CN(C)C(=O)c1ccccc1C(CCN1CCN(c2cccc3c2OCCO3)CC1)C(O)C1CCCCC1 (stereo not shown)
8.74

Give pKi for the following compound: COC(C1CCCCC1)C(CCN1CCN(c2cccc3c2OCCO3)CC1)c1ccccc1 (stereo not shown)
9.19

Using the record for N#Cc1ccccc1C(CCN1CCN(c2cccc3c2OCCO3)CC1)C(O)C1CCCCC1 (racemic) [Example 14b] , state its measured pKi.
9.02

Give a short answer stating reported pKi for C=CCC(O)C(CCN1CCN(c2cccc3c2OCCO3)CC1)c1ccccc1 (stereo not shown) .
8.78

# return recorded pKi for input N#Cc1ccccc1C(CCN1CCN(c2cccc3c2OCCO3)CC1)C(=O)C1CCCCC1 (stereo not shown)
9.28

Provide only the value of recorded pKi for C#CC(O)C(CCN1CCN(c2cccc3c2OCCO3)CC1)c1ccccc1 (stereo not shown)
8.30

Identify measured pKi corresponding to C=CCOC(C1CCCCC1)C(CCN1CCN(c2cccc3c2OCCO3)CC1)c1ccccc1 (stereo not shown)
9.11

Please report pKi for the following compound: CC(C)=CC(O)C(CCN1CCN(c2cccc3c2OCCO3)CC1)c1ccccc1 (stereo not shown)
8.83

Find the measured pKi of CC#CC(O)C(CCN1CCN(c2cccc3c2OCCO3)CC1)c1ccccc1 (stereo not shown) and report it.
8.57

Please supply the value of reported pKi for the item CCOC(C1CCCCC1)C(CCN1CCN(c2ccc(F)cc2OC)CC1)c1ccccc1 (stereo not shown)
8.50

Provide pKi value for the following compound: CCCOC(C1CCCCC1)C(CCN1CCN(c2cccc3c2OCCO3)CC1)c1ccccc1 (stereo not shown)
8.93
